Source of measurements: patent US10287267B2

tested on: Tau phosphorylation at Ser396 (pSer396); test: Tau phosphorylation assay (pSer396 ELISA / western blot) in SH-SY5Y cells; type: cell-based, human; conditions: Homo sapiens; SH-SY5Y cells, overnight (16-18 h) exposure; read-out: pSer396 Tau EC50;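 note: EC50 for reduction of Tau pSer396 in lysed cells, measured by colorimetric ELISA or chemiluminescent western blot, both using the same pSer396 antibody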
Overview of reported pEC50 across a group of molecules:
In textbook form, pEC50 equals minus log to base ten of the concentration in mol/L.

Example molecules with recorded pEC50:
>>> print(df.to_string())
                         chemical_structure  numeric_result
0  CN(C)c1nnc(-c2ccc3cnc(NC(=O)C4CCNCC4)cc3c2)o1            6.15
1  O=C(Nc1cc2cc(-c3cnn4c3CN(CCF)CC4)ccc2cn1)C1CCC(F)(F)CC1            6.39
2  Cn1cc(-c2cc3cc(NC(=O)C4CCN(CCF)CC4)ncc3cc2F)cn1            6.24
3  Cn1cc(-c2ccc3cnc(NC(=O)C4CCN(CC(F)F)CC4)cc3c2)cn1            6.34
4  Cn1cc(-c2ccc3cnc(NC(=O)[C@@H]4CCCNC4)cc3c2)nn1            6.18

Given Cn1cc(-c2ccc3cnc(NC(=O)[C@H]4CC[C@H](CN5CC(F)C5)CC4)cc3c2)cn1 , state its recorded pEC50. 6.64

Given Cc1ncc(-c2ccc3cnc(NC(=O)C4CC4)cc3c2)n1C , state its recorded pEC50. 6.38

Given Cn1cc(-c2ccc3cnc(NC(=O)C4CCN(S(C)(=O)=O)CC4)cc3c2)cn1 , state its recorded pEC50. 6.61

Given CC(C)OCCC(=O)Nc1cc2cc(-c3cncn3C)ccc2cn1 , state its recorded pEC50. 7.17

Given CO[C@H]1CC[C@@H](C(=O)Nc2cc3cc(-c4nnc(C)s4)ccc3cn2)CC1 , state its recorded pEC50. 5.48

Given Cn1cc(-c2ccc3cnc(NC(=O)CN4CC[C@H](F)C4)cc3c2)cn1 , state its recorded pEC50. 6.42

Given Cn1cc(-c2ccc3cnc(NC(=O)[C@H]4CC[C@H](N(C)C)CC4)cc3c2)nn1 , state its recorded pEC50. 6.54

* * *

target: recombinant GSK3β kinase (Homo sapiens (Human), UniProt P49841); experiment: GSK3β kinase assay (Ser/Thr 09 peptide Z-lyte FRET); details: 46 μM ATP, 1 h room temperature;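 note: kinase activity read as coumarin to fluorescein emission ratio, 11-point threefold dilutions from 10 µM to 0.0003 µM in duplicate, unphosphorylated and phosphorylated peptide as 0% and 100% controls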
Sequence (P49841 whole entry): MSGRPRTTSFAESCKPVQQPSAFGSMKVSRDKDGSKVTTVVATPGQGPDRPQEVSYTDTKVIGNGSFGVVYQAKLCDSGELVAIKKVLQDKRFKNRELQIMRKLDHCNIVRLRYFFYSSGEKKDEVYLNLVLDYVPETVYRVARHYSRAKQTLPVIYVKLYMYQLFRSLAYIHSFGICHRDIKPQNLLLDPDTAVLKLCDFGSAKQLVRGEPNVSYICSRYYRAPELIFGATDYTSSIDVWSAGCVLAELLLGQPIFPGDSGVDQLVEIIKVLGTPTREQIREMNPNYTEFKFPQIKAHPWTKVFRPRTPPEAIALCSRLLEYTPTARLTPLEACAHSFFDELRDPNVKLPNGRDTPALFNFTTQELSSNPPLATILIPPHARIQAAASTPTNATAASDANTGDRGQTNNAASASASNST
Overview of reported EC50 across a group of compounds:

>>> df
                         chemical_structure  readout_type      result
0  Cn1cc(-c2ccc3cnc(NC(=O)C4CCN(Cc5ncccn5)CC4)cc3c2)cn1          EC50       43 nM
1  CC(C)CN1CCC[C@H](C(=O)Nc2cc3cc(-c4cnn(C)c4)ccc3cn2)C1          EC50      292 nM
2  Cc1ncc(-c2ccc3cnc(NC(=O)[C@H]4CC[C@H](CN5CC(F)C5)CC4)cc3c2)o1          EC50       54 nM
3  CN1CCC(C(=O)Nc2cc3cc(-c4ccn(C)n4)ccc3cn2)CC1          EC50  > 10000 nM

Turning now to a further compound:
Given Cn1cc(-c2ccc3cnc(NC(=O)CN4C[C@H]5C[C@@H]4CO5)cc3c2)cn1 , state its recorded EC50. 84 nM
